B1: KCNA3 (parent)
chain: YQSGGRIRRPVNVPIDIFSEEIRF

variants of: B1; assay: protein stability index of a GFP-peptide fusion (GPS, HEK-293T) (PSI 1-6); higher = more stable; conditions: c terminus: a fixed tail appended;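 also: lentivirally expressed fusions sorted by FACS into six bins by GFP to DsRed ratio, PSI derived from sequencing read proportions per bin multiplied by bin number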
Label YES for high-side protein stability index (at or above 2) and NO for low-side protein stability index (below it).

>>> assigned_label("V11I")
"NO"
>>> assigned_label("P10W")
"YES"
>>> assigned_label("F24P")
"YES"

API: above_or_equal(metric=protein stability index, cutoff=2) for item `P10M` NO

Decide: protein stability index of `R6Q` >= 2? YES

Kindly determine if protein stability index recorded for `S19A` is above or exactly 2. NO
